Assayed Target: TGFβ1 (Homo sapiens, UniProt P01137 P01137:279-390)
Sequence (P01137 279-390, one chain of several): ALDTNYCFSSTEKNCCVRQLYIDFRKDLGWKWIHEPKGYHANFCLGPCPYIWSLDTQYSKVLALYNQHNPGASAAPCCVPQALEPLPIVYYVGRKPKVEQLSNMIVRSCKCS
Method Summary: cell_activity
Recorded Conditions: tags: Genentech or R&D Systems; chain copies: 2
# IC50 listing for each entry below

Binder	IC50 [nM]
lib3-42 (ssRNA, 2'-NH2 pyrimidines) RNA: GGGGGAGAACGCGGAUCCGGUGGGAAAGUCGGAUUAUGUGUGUAGAUUUGUGUGCGAAAGCUUCGCUCUAGAUCUCCCUUUAGUGAGGGUUA	22
lib3-44 (ssRNA, 2'-NH2 pyrimidines) RNA: GGGGGAGAACGCGGAUCCUGAGAAGGACGUCGGGGUGAGGUGCAGCAGAAAGGGCCGGCACCACAUGACGUAAAAGCUUCGCUCUAGAUCUCCCUUUAGUGAGGGUUA	119
lib5-7 (ssRNA, 2'-NH2 pyrimidines) RNA: GGGGGAGAACGCGGAUCCGAGCAAGCCCUGGCAUAGCUUCCGAGUAGACAGGAGGGAGGGGUGGAUGUGGCGUCUACUCGGUGUCGUGAAGCUUCGCUCUAGAUCUCCCUUUAGUGAGGGUUA	17
lib8-9* (ssRNA, 2'-NH2-U, 2'-F-C) RNA: GGGGGAGAACGCGGAUCCGCAAUCCCAGGCGCAUAGCUUCCGAGUAGACAGGAGGGAGGGGUGGAUGUGGCGUCUACUCGGCGUCGUGAAGCUUCGCUCUAGAUCUCCCUUUAGUGAGGGUUA	124
lib5-5 (ssRNA, 2'-NH2 pyrimidines) RNA: GGGGGAGAACGCGGAUCCGAGCAAUCCCAGGCGCAUAGCUUCCGAGUAGACAGGAGGGAGGGGUGGAUGUGGCGUCUCGAGGAAGCUUCGCUCUAGAUCUCCCUUUAGUGAGGGUUA	49
lib8-9 (ssRNA, 2'-NH2 pyrimidines) RNA: GGGGGAGAACGCGGAUCCGCAAUCCCAGGCGCAUAGCUUCCGAGUAGACAGGAGGGAGGGGUGGAUGUGGCGUCUACUCGGCGUCGUGAAGCUUCGCUCUAGAUCUCCCUUUAGUGAGGGUUA	210
